assayDetails: NCI Yeast Anticancer Drug Screen. Data for the sgs1 mgt1 strain (AID 161);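 also: 0% = growth of cultures given vehicle only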
conditionNotes: S. cerevisiae sgs1 mgt1 strain, at 50.0 µM, hits give high values
Protocol: Growth inhibition of yeast strains with defined genetic alterations is measured as a screen for potential anti-cancer activity. Selected strains with alterations in DNA damage repair or cell cycle control were exposed to compounds and growth inhibition was measured relative to vehicle treated controls. The strain used in this assay is sgs1 mgt1
This is part of a sample that, as a whole, favours compounds with a hit. Of some 79,000 tested, about 15% had one in any assay.
Kindly state growth inhibition for each of the entries shown.
One number for each entry, in %.

INSERT INTO assay_data (compound, reportedproperty, unitlabel, numericvalue) VALUES
  ('COc1cc2c(cc1C1COc3cc4occc4cc3C1=O)OCO2 (stereo not given)', 'growth inhibition', '%', 4.05);

Need growth inhibition for each of these compounds.
1. Cc1coc2c1C(OC(=O)C(C)C)C1(C)C(C)CCC(O)C1C2=O (stereo not given)
2. COc1ccc2cc1Oc1ccc(cc1)CC1c3cc(OC)c(cc3CCN1C)Oc1c(OC)c(OC)cc3c1C(C2)N(C)CC3 (stereo not given)

31.5
-6.8

###

assayDetails: NCI Yeast Anticancer Drug Screen. Data for the bub3 strain (AID 167)
conditionNotes: S. cerevisiae bub3 mutant strain, at 50.0 µM, hits give high values
The panel holds about 79,000 compounds, 15% with a hit somewhere; the sample as a whole holds those more often.
Kindly state growth inhibition for each of the entries shown.
Give bare numbers, in %.

Examples with answers:
INSERT INTO results (compound, numericvalue) VALUES
  ('Cc1ccc(/C=N/Nc2ccccn2)s1', -11.2),
  ('N#C/C=C1\C=CC(O)C(O)C1OC1OC(CO)C(O)C(O)C1O (configuration not stated)', 12.9),
  ('COc1cc(C)c2c(c1C=O)Oc1c(c(C)c(O)c3c1C(O)OC3=O)OC2=O (configuration not stated)', -4.85),
  ('CC1CC2(OC2C)C(=O)OC2CCN(C)C/C=C(/COC(=O)C1(C)O)C2=O (configuration not stated)', -10.8),
  ('COc1cc([C@H]2OC[C@@H]3C(c4cc(OC)c5c(c4)OCO5)OC[C@H]23)cc(OC)c1OC (some centres not stated)', -1.35);

Need growth inhibition for each of these compounds.
1. CNC(=S)c1nnsc1N
2. O=C1NC(N/N=C\c2ccccc2)=N/C1=C/c1ccccc1
3. COc1cc(N(CCC#N)CCC#N)ccc1/C(N=Nc1ccc(Cl)cc1)=N/NC(=O)c1cc(Br)ccc1O
4. COc1ccc2nc(NC(=O)/C(C#N)=C/c3ccccc3)sc2c1
5. COC(=O)C(C(=O)C(=O)NC1Nc2ccc(C)cc2S1)c1nc2ccc(Cl)cc2[nH]c1=O (configuration not stated)
6. O=C(O)CCNC(=O)c1ccccc1
7. CCOc1cc2c(cc1O)/C(=N/NS(=O)(=O)c1ccc(C)cc1)C[C@@H]1[C@@H]2CC[C@]2(C)[C@@H](O)CC[C@@H]12
8. Clc1c(Cl)c(Cl)c2nn(C3CCCO3)nc2c1Cl (configuration not stated)

6.3
-0.3
17.8
-8.95
13.2
7.95
14.1
12.1

Need growth inhibition for each of these compounds.
1. O=C=NC(c1ccccc1)(c1ccccc1)c1ccccc1
2. O=C(NC1=NC2C=CC([N+](=O)[O-])=CC2S1)C(=O)Nn1c(=S)[nH]c2ccccc2c1=O (configuration not stated)
3. Cc1ccc(OC2CC(n3cnc4ncnc(Cl)c43)OC2Oc2ccc(C)cc2)cc1 (configuration not stated)
4. C=C1C(=O)OC2/C=C(\CO)CC/C=C(\CO)CC(OC(=O)C(C)C)C12 (configuration not stated)
5. c1ccc(-c2cccc3ccccc23)cc1
6. COc1cc2c3cc1Oc1c(OC)c(OC)cc4c1C(Cc1ccc(O)c(c1)-c1cc(ccc1OC)CC3N(C)CC2)N(C)CC4 (configuration not stated)
7. Cc1ccc(/C=N/Nc2nncc3ccccc23)s1

1: -5.5; 2: 20.7; 3: 13; 4: -7; 5: -11.2; 6: 8.85; 7: 21.7

Need growth inhibition for each of these compounds.
1. COc1cc(-c2nc(SC)nc3c2CCc2ccccc2-3)cc(OC)c1OC
2. CNc1nc2c(C)ccc3[nH]c(N(C)C)nc3c-2n1
3. N/N=C(\C(=O)Nc1ccc([N+](=O)[O-])cc1)C(C1=Nc2cc([N+](=O)[O-])ccc2NC1)[N+](=O)[O-] (configuration not stated)
4. OCc1ccccn1
5. CCCCCC(O)(CCCCC)CCCCCCCCC1=C(O)c2ccccc2C(=O)C1=O
6. N#CC1(C#N)N[C@@H](c2ccsc2)[C@H]2C(=O)N(c3ccccc3)C(=O)[C@H]21
7. COc1ccc(C2c3cc4c(c(OC)c3CC3OCC(=O)C32)OCO4)cc1OC (configuration not stated)
8. CC(=Nc1ccncc1)C(C)=Nc1ccncc1

4.35
4.65
5
-3.95
1
-6.95
1.45
89.8

Need growth inhibition for each of these compounds.
1. O=C(/C=C(\[O-])c1ccccc1)CCCCCCC(=O)/C=C(\[O-])c1ccccc1.O=C(/C=C(\[O-])c1ccccc1)CCCCCCC(=O)/C=C(\[O-])c1ccccc1.O=C(/C=C(\[O-])c1ccccc1)CCCCCCC(=O)/C=C(\[O-])c1ccccc1.[La+3].[La+3]
2. CO/C(N)=C(\C#N)N=Cc1ccc2ccccc2c1
3. Cn1cnc2c(=O)[nH]c(=O)[nH]c21
4. CCCCCCSC[C@H](OC(C)=O)[C@@H](OC(C)=O)[C@@H](OC(C)=O)[C@@H](COC(C)=O)OC(C)=O
5. COC(=O)/C(=N\NC(=S)NN)C(C(=O)OC)C(=O)C(=O)Nc1cccc(C(F)(F)F)c1 (configuration not stated)

12.3
16.7
-34.8
9
-9.25

###

assayDetails: NCI Yeast Anticancer Drug Screen. Data for the rad50 strain (AID 155);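 also: 0% = growth of vehicle-only cultures of the same strain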
conditionNotes: S. cerevisiae rad50 strain growth inhibition; at 50.0 µM; hits give high values
This is part of a sample that, as a whole, favours compounds with a hit. Of some 79,000 tested, about 15% had one in any assay.
Kindly state growth inhibition for each of the entries shown.
Answers are plain numbers, in %.

Examples with answers:
INSERT INTO measurements (compound, numericvalue) VALUES
  ('C=C1C(=O)OC2/C=C(\CO)CC/C=C(\CO)CC(OC(=O)C(C)C)C12 (stereo not given)', -17),
  ('c1ccc2c(c1)OCCOCCOc1ccccc1OCCOCCO2', 3.15),
  ('CC(=O)Nc1ccc(/C=C/C(=O)c2ccc(Cl)cc2)cc1', 18.2),
  ('O=C(CCc1ccc(O)c(O)c1)c1ccc(O)c(O)c1O', 2.05),
  ('CCOc1ccc(/C=C(/C#N)C(N)=O)cc1', 9.7),
  ('C=C1C2CCC3C4(C)CCCC(C)(C(=O)O)C4CCC3(C2)C1OC(=O)/C(C)=C/C (stereo not given)', 22.4);

Need growth inhibition for each of these compounds.
1. Clc1nc(Oc2ccccc2)nc(-c2cn(-c3ccccc3)c3ccccc23)n1
2. CCCCCCCCCCCCOc1ccccc1C=O
3. N#C/C(=C/c1c(O)ccc2ccccc12)C(N)=O

1. 2.05
2. 1.5
3. 33.7

Need growth inhibition for each of these compounds.
1. OCc1ccccc1OC1OC(CO)C(O)C(O)C1O (stereo not given)
2. COc1ccc(-c2cc(=O)c3c(ccc4ccccc43)o2)cc1
3. O=C1NC(N/N=C\c2ccccc2)=N/C1=C/c1ccccc1
4. O=C1c2ccccc2-c2c1c1ccccc1c(=O)n2CCO
5. CN(C)c1ccc(C2=C([O-])C(=C3C=CC(=[N+](C)C)C=C3)C2=O)cc1

1. 18.5
2. 21.6
3. -2.9
4. 76.8
5. -10.4

Need growth inhibition for each of these compounds.
1. CC(C)Cc1ccc(C(C)C(=O)O)cc1 (stereo not given)
2. O=C1NC(N/N=C\c2ccccc2)=N/C1=C/c1ccc(Cl)cc1

1: 0.5; 2: 22.6

###

assayDetails: NCI Yeast Anticancer Drug Screen. Data for the cln2 rad14 strain (AID 165);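 also: 0% = growth equal to vehicle treated cultures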
conditionNotes: S. cerevisiae cln2 rad14 strain, at 50.0 µM, hits give high values
Compounds without any hit were thinned out: in the full panel of roughly 79,000, 15% have a hit.
Kindly state growth inhibition for each of the entries shown.
Answers are plain numbers, in %.

INSERT INTO measurements (molecule, unitlabel, numericvalue) VALUES
  ('COc1cc2oc3c(c(=O)c2c(O)c1/C=C/C(C)C)CCC(C)(C)Oc1cc(O)ccc1-3', '%', 47.3);

Need growth inhibition for each of these molecules.
1. O=C(CCc1ccc(O)c(O)c1)c1ccc(O)c(O)c1O
2. COC(=O)/C=C\C(C#N)(C#N)N=Cc1ccsc1
3. COC(=O)C1CCC(=O)N1CN(C(C)=O)c1cccc(O)c1 (stereo unspecified)
4. Cc1ccc(/C=N/Nc2cnccn2)s1
5. O=c1c2ccccc2nc(-c2ccccc2)n1/N=C/c1ccccc1[N+](=O)[O-]

2.6
29.6
9.75
15.2
8.35

Need growth inhibition for each of these molecules.
1. O=C1c2ccccc2-c2c1c1ccccc1c(=O)n2CCO
2. CNc1nc2c(C)ccc3[nH]c(N(C)C)nc3c-2n1
3. COC(=O)/C(=N\NC(=S)NN)C(C(=O)OC)C(=O)C(=O)Nc1cccc(C(F)(F)F)c1 (stereo unspecified)

[60.6, 8.1, 5.6]

Need growth inhibition for each of these molecules.
1. CC1=C2NCN(C)N=C2C(C#N)(C#N)C1(C#N)C#N
2. CC(C)=CCc1cc(C2COc3cc4c(c(O)c3C2=O)C=CC(C)(C)O4)c(O)cc1O (stereo unspecified)

1. 2.25
2. 90.9
